Assay: Prodrug conversion in human CEM/0 cell extract assessed as metabolite formation by measuring half life by HPLC analysis
Assay type: ADME
Details: ccrf-cem
TEST READOUT: Drug metabolism

Worked cases, answers included:
{"columns": ["COMPOUND", "OBSERVED RESULT"],
 "data": [
  ["CCCCCCCCCCCCP(=O)(OCc1ccc(OC(=O)CCCC)cc1)OP(=O)(O)OC[C@@H]1C=C[C@H](n2cc(C)c(=O)[nH]c2=O)O1.N (stereo partly drawn)", "Metabolite_Notdetected"],
  ["CCCCCCCCCCCCCCCCCCP(=O)(OCC(CC)CCCC)OP(=O)(O)OP(=O)(O)OC[C@@H]1C=C[C@H](n2cc(C)c(=O)[nH]c2=O)O1.N.N (stereo partly drawn)", "Metabolite_Notdetected"],
  ["COP(=O)(O)OP(=O)(O)OC[C@@H]1C=C[C@H](n2cc(C)c(=O)[nH]c2=O)O1.N.N", "Metabolite_Notdetected"],
  ["CCCCC(=O)Oc1ccc(COP(=O)(OC)OP(=O)(O)OC[C@@H]2C=C[C@H](n3cc(C)c(=O)[nH]c3=O)O2)cc1.N (stereo partly drawn)", "Metabolite_Notdetected"]
]}

Q: Returns the measured Drug metabolism for the input compound. Input: CCCCCCCCCCCC(=O)Oc1ccc(COP(=O)(OCCCC)OP(=O)(O)OC[C@@H]2C=C[C@H](n3cc(C)c(=O)[nH]c3=O)O2)cc1.N (stereo partly drawn)
Result: Metabolite_Notdetected

Q: Fill in the blank: the reported Drug metabolism of CCCCCCCCCCCCCCCCCCOP(=O)(OCC(CC)CCCC)OP(=O)(O)OP(=O)(O)OC[C@@H]1C=C[C@H](n2cc(C)c(=O)[nH]c2=O)O1.N.N (stereo partly drawn) is ____.
Result: Metabolite_Notdetected

Q: Need Drug metabolism, item CCCCCCCCCCCCCCCCCCP(=O)(OCCCCCCCCCCCC)OP(=O)(O)OP(=O)(O)OC[C@@H]1C=C[C@H](n2cc(C)c(=O)[nH]c2=O)O1.N.N (stereo partly drawn)
Result: Metabolite_Notdetected

Q: Recorded Drug metabolism for CCCCCCCCCCCCCCCCCCOP(=O)(OCCCCCCCC)OP(=O)(O)OC[C@@H]1C=C[C@H](n2cc(C)c(=O)[nH]c2=O)O1.N (stereo partly drawn) , please?
Result: Metabolite_Notdetected

---

Assay: Chemical stability of the compound in phosphate buffer assessed as half life at pH 7.3 by HPLC analysis
Type: physicochemical
TEST READOUT: half-life

Take a look at these entries with their results.
{"columns": ["MOLECULE", "TEST READOUT", "OBSERVED RESULT"],
 "data": [
  ["CCCCCCCCCCCCCCCCCCP(=O)(OCC(CC)CCCC)OP(=O)(O)OP(=O)(O)OC[C@@H]1C=C[C@H](n2cc(C)c(=O)[nH]c2=O)O1.N.N (stereo partly drawn)", "half-life", "> 41.7 days"],
  ["CCCCCCCCCCCCCCCCCCOP(=O)(OCC(CC)CCCC)OP(=O)(O)OP(=O)(O)OC[C@@H]1C=C[C@H](n2cc(C)c(=O)[nH]c2=O)O1.N.N (stereo partly drawn)", "half-life", "> 83.3 days"]
]}

API: the following record is the query input.
Q: Look at this molecule and give its reported half-life. CCCCCCCCCCCCCCCCCCP(=O)(OCCCC)OP(=O)(O)OP(=O)(O)OC[C@@H]1C=C[C@H](n2cc(C)c(=O)[nH]c2=O)O1.N.N (stereo partly drawn)
Result: > 70.8 days

---

Tested on: Human immunodeficiency virus 2
Assay: Antiviral activity against HIV-2 ROD infected in thymidine kinase-deficient human CEM cells assessed as inhibition of virus-induced cytopathic effect incubated for 4 to 5 days by light microscopic analysis
Assay type: functional, organism-based
Details: Human immunodeficiency virus 2, ROD, CCRF-CEM
TEST READOUT: EC50 (nM)
Unit nM implied. Number only.

Example results:
{"columns": ["COMPOUND", "EC50 (nM)"],
 "data": [
  ["CCCCCCCCCCCCOP(=O)(O)OP(=O)(O)OC[C@@H]1C=C[C@H](n2cc(C)c(=O)[nH]c2=O)O1.N.N", 11000],
  ["CCCCCCCCCCCCOP(=O)(OCc1ccc(OC(=O)CCCC)cc1)OP(=O)(O)OC[C@@H]1C=C[C@H](n2cc(C)c(=O)[nH]c2=O)O1.N (stereo not given in full)", 1390],
  ["CCCCCCCCCCCCOP(=O)(OCc1ccc(OC(=O)CCCCCCCCCCC)cc1)OP(=O)(O)OC[C@@H]1C=C[C@H](n2cc(C)c(=O)[nH]c2=O)O1.N (stereo not given in full)", 48]
]}

Q: Can you share its EC50? I mean this compound: CCCCCCCCCCCCP(=O)(OCc1ccc(OC(=O)CCCCCCCCCCC)cc1)OP(=O)(O)OC[C@@H]1C=C[C@H](n2cc(C)c(=O)[nH]c2=O)O1.N (stereo not given in full)
Result: 10

---

Assay: Chemical stability of the compound in phosphate buffer saline assessed as half life at pH 7.3 by HPLC analysis
Format: physicochemical
Settings: phosphate buffered saline
half-life by entry:

// known answers, use as guide
{"columns": ["COMPOUND", "half-life"],
 "data": [
  ["CCCCC(=O)Oc1ccc(COP(=O)(OC)OP(=O)(O)OC[C@@H]2C=C[C@H](n3cc(C)c(=O)[nH]c3=O)O2)cc1.N (some centres not stated)", "3.5 days"],
  ["CCCCCCCCCCCCCCCCCCOP(=O)(OCCCC)OP(=O)(O)OC[C@@H]1C=C[C@H](n2cc(C)c(=O)[nH]c2=O)O1.N (some centres not stated)", "> 41.7 days"],
  ["CCCCCCCCCCCCOP(=O)(O)OP(=O)(O)OC[C@@H]1C=C[C@H](n2cc(C)c(=O)[nH]c2=O)O1.N.N", "> 125 days"],
  ["CCCCOP(=O)(O)OP(=O)(O)OC[C@@H]1C=C[C@H](n2cc(C)c(=O)[nH]c2=O)O1.N.N", "> 125 days"],
  ["CCCCCCCCCCCCCCCCCCP(=O)(OCc1ccc(OC(=O)CCCC)cc1)OP(=O)(O)OC[C@@H]1C=C[C@H](n2cc(C)c(=O)[nH]c2=O)O1.N (some centres not stated)", "> 83.3 days"],
  ["CCCCCCCCCCCCCCCCCCP(=O)(OCCCC)OP(=O)(O)OC[C@@H]1C=C[C@H](n2cc(C)c(=O)[nH]c2=O)O1.N (some centres not stated)", "> 125 days"]
]}

# input for lookup
Q: Dear colleague, I am looking for the recorded half-life of the following compound: CCCCCCCCCCCCOP(=O)(OCc1ccc(OC(=O)CCCCCCCCCCC)cc1)OP(=O)(O)OC[C@@H]1C=C[C@H](n2cc(C)c(=O)[nH]c2=O)O1.N (some centres not stated)
Result: 15.5 days

---

Test: Selectivity index, ratio of CC50 for human CEM cells to EC50 for HIV-2 ROD infected in thymidine kinase-deficient human CEM cells
Type: toxicity
Settings: read-out: Ratio CC50/EC50
TEST READOUT: selectivity ratio
Output: the number by itself.

These recorded examples may help you get a feel for the data.
{"columns": ["MOLECULE", "selectivity ratio"],
 "data": [
  ["CCCCCCCCCCCCP(=O)(OCc1ccc(OC(=O)CCCCCCCCCCC)cc1)OP(=O)(O)OC[C@@H]1C=C[C@H](n2cc(C)c(=O)[nH]c2=O)O1.N (some centres not stated)", 4110],
  ["CCCCCCCCCCCCCCCCCCP(=O)(OCCCCCCCCCCCC)OP(=O)(O)OP(=O)(O)OC[C@@H]1C=C[C@H](n2cc(C)c(=O)[nH]c2=O)O1.N.N (some centres not stated)", 143],
  ["CCCCCCCCCCCCCCCCCCOP(=O)(OCc1ccc(OC(=O)CCCC)cc1)OP(=O)(O)OC[C@@H]1C=C[C@H](n2cc(C)c(=O)[nH]c2=O)O1.N (some centres not stated)", 3170],
  ["CCCCCCCCCCCCCCCCCCP(=O)(OCCCC)OP(=O)(O)OC[C@@H]1C=C[C@H](n2cc(C)c(=O)[nH]c2=O)O1.N (some centres not stated)", 20300],
  ["CCCCCCCCCCCCCCCCCCOP(=O)(OCCCCCCCC)OP(=O)(O)OC[C@@H]1C=C[C@H](n2cc(C)c(=O)[nH]c2=O)O1.N (some centres not stated)", 4220]
]}

Next up:
Q: Can you share its selectivity ratio? I mean this molecule: CCCCCCCCCCCCCCCCCCP(=O)(OCc1ccc(OC(=O)CCCC)cc1)OP(=O)(O)OC[C@@H]1C=C[C@H](n2cc(C)c(=O)[nH]c2=O)O1.N (some centres not stated)
Result: 7290

---

Experiment: Cytotoxicity against human CEM cells assessed as reduction in cell viability incubated for 4 to 5 days by light microscopic analysis
Assay type: toxicity, cell-based
Settings: CEM cells (CCRF-CEM), time 4-5 day
TEST READOUT: CC50

// solved cases for CC50 follow
{"columns": ["COMPOUND", "CC50"],
 "data": [
  ["Cc1cn([C@H]2C=C[C@@H](CO)O2)c(=O)[nH]c1=O", "> 50 µM"],
  ["CCCCC(=O)Oc1ccc(COP(=O)(OC)OP(=O)(O)OC[C@@H]2C=C[C@H](n3cc(C)c(=O)[nH]c3=O)O2)cc1.N (some centres undefined)", "> 100 µM"],
  ["CCCCCCCCCCCCOP(=O)(OCc1ccc(OC(=O)CCCC)cc1)OP(=O)(O)OC[C@@H]1C=C[C@H](n2cc(C)c(=O)[nH]c2=O)O1.N (some centres undefined)", "> 100 µM"]
]}

Moving on to the next compound.
Q: Find the recorded CC50 belonging to COP(=O)(O)OP(=O)(O)OC[C@@H]1C=C[C@H](n2cc(C)c(=O)[nH]c2=O)O1.N.N and report it.
Result: > 100 µM

The origin of these recorded values is ChEMBL document CHEMBL5365447.
